Reference for the values: patent US20210196796A1

Molecular target: T1, orthogonal hCD122 receptor (hoRb), hCD122 with H133D and Y134F (human, UniProt P14784 27-550)
T1 sequence: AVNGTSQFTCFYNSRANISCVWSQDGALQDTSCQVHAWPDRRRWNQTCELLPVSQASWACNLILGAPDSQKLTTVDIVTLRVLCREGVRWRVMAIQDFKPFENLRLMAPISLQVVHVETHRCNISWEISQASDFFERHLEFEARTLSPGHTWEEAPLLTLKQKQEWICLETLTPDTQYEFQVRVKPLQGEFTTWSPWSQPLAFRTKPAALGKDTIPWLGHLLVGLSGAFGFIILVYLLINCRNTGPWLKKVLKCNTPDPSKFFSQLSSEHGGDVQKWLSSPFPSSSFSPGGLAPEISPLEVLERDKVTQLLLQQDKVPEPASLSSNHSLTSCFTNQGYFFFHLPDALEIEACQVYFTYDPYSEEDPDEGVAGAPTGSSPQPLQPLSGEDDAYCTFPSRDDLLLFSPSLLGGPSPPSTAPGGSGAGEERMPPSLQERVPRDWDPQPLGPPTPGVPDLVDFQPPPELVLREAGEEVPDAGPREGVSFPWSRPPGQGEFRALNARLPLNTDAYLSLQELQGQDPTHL
Experiment: cell-based or functional assay
observed_property: Relative Proliferation Fold Change 3F8 1:10 (fold)

[1] SQVLTA (ligand) APTSSSTKKTQLQLSQLLVLLTAILNGINNYKNPKLTRMLTFKFYMPKKATELKHLQCLEEELKPLEEVLNLAQSKNFHLRPRDLISNINVIVLELKGSETTFMCEYADETATIVEFLNRWITFCQSIISTLT
[2] D109C, SQVLKA (ligand) APTSSSTKKTQLQLSQLLVLLKAILNGINNYKNPKLTRMLTFKFYMPKKATELKHLQCLEEELKPLEEVLNLAQSKNFHLRPRDLISNINVIVLELKGSETTFMCEYACETATIVEFLNRWITFCQSIISTLT
Prompt: Select the item whose Relative Proliferation Fold Change 3F8 1:10 value is smaller, choosing between 1 and 2 . State your choice using its label.
Response: 1
